Hey, just so you know, these numbers are from patent US20160222014A1.

assayedTarget: Recombinant Src enzyme (Homo sapiens, UniProt P12931)
Sequence (P12931 whole entry): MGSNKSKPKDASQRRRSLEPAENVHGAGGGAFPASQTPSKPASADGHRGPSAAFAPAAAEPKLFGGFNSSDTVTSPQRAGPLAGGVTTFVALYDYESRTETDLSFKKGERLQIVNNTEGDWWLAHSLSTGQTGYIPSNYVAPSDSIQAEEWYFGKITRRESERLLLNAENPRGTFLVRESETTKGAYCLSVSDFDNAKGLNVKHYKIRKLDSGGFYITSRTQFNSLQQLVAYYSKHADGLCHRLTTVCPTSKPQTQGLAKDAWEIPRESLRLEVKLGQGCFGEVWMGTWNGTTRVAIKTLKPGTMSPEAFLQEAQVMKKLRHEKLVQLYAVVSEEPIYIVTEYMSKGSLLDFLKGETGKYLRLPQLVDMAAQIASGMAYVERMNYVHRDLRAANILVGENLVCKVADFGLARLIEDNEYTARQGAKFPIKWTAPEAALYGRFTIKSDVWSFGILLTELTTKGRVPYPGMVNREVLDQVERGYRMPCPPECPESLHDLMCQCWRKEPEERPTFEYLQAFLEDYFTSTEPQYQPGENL
experimentalProtocol: Src HTRF assay
pIC50: −log10 of the molar value.
Below, each of the compounds is paired with its reported pIC50 value.

Before answering, review these 2 worked examples.
CN(c1ncccc1Cn1ncc2cnc(Nc3ccc4c(c3)CCC(=O)N4)nc21)S(C)(=O)=O [Example 202] = > 7.70
CC(=O)Nc1ccc(Nc2cc3c(cn2)c(C)nn3Cc2ccccc2OC(F)F)cc1 [Example 81] = < 6.00

Now take the following compound into account.
// sample CN(c1ncccc1Cn1ncc2cnc(Nc3ccc(N4CCNCC4)cc3)nc21)S(C)(=O)=O [Example 241] , its pIC50 was > 7.70

====

assayedTarget: AURKB (Aurora B) enzyme (Homo sapiens, UniProt Q96GD4)
Sequence (Q96GD4 whole entry): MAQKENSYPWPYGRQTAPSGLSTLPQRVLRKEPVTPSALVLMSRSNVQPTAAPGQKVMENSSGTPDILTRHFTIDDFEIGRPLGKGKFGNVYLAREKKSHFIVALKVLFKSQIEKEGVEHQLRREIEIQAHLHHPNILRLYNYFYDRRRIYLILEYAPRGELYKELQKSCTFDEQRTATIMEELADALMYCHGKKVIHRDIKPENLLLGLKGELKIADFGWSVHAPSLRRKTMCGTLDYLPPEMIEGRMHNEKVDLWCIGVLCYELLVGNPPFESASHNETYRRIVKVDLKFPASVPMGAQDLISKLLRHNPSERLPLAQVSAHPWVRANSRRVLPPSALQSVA
readoutName: IC50

C[C@@H]1CN(c2ccc(Nc3ncc4ccn(Cc5cccnc5N(C)S(C)(=O)=O)c4n3)cc2)CCN1 [Example 475] = < 20 nM
O=S(=O)(c1cccc2cccnc12)n1ncc2cnc(Nc3ccc(N4CCNCC4)cc3)nc21 [Example 231] = < 20 nM
Cc1nn(Cc2ccccc2OC(F)F)c2cc(Nc3ccc4c(c3)CCC(=O)N4)ncc12 [Example 80] = > 1000 nM
CC(=O)Nc1cccc(Nc2cc3c(ccn3S(=O)(=O)c3ccccc3OC(F)(F)F)cn2)c1 [Example 58] = > 1000 nM
COc1ccccc1S(=O)(=O)n1ncc2cnc(Nc3ccc(N4CCNCC4)cc3)cc21 [Example 342] = < 20 nM

// sample N#Cc1ccccc1S(=O)(=O)n1ccc2cnc(Nc3ccc(N4CCNCC4)c(F)c3)nc21 [Example 245] , its IC50 was < 20 nM

// sample CC1(C)CN(S(=O)(=O)c2ccccc2C#N)c2nc(Nc3ccc(N4CCNCC4)cc3)ncc21 [Example 461] , its IC50 was > 1000 nM

====

assayedTarget: recombinant human FAK1 (Homo sapiens)
Construct: fused on or other part: N-terminal 6xHis tag
Sequence (Q05397 422-680 limits assumed): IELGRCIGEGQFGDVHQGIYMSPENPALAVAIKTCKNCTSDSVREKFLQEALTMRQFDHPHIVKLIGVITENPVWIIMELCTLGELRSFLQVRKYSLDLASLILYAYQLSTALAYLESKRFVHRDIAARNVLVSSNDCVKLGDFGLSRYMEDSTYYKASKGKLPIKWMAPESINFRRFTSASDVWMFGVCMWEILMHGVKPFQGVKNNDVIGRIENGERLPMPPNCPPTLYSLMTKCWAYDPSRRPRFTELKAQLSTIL
experimentalProtocol: FAK1 HTRF assay
pIC50: −log10 of the molar value.
readoutName: pIC50

CN(C)Cc1ccc(Nc2ncc3ccn(S(=O)(=O)c4cccc5cccnc45)c3n2)cc1 = > 7.70
Cc1cc(Nc2ncc3ccn(S(=O)(=O)c4ccccc4C#N)c3n2)ccc1N1CCNCC1 = > 7.70
CN(c1ccccc1Cn1ccc2cnc(Nc3ccc(N4CCOCC4)cc3)nc21)S(C)(=O)=O = > 7.70
CN(c1ccccc1Cn1ccc2cnc(Nc3ccc(N4CCC(CO)CC4)cc3)nc21)S(C)(=O)=O = > 7.70
COc1cc(Nc2cc3c(ccn3S(=O)(=O)c3cccc4cccnc34)cn2)ccc1N1CCNCC1 = > 7.70
CN1CCC(NC(=O)c2ccc(Nc3ncc4c(n3)N(S(=O)(=O)c3cccc5cccnc35)CC4(C)C)cc2)CC1 = > 7.70
CCC1CN(c2ccc(Nc3ncc4ccn(Cc5cc(OC)ccc5N(C)S(C)(=O)=O)c4n3)cc2)CCN1 (stereo not drawn) = > 7.70
CN(c1ncccc1Cn1ccc2cnc(Nc3ccc4c(c3)OCC(=O)N4)nc21)S(C)(=O)=O = > 7.70
O=S(=O)(c1ccc(Nc2ncc3ccn(Cc4ccccc4OC(F)F)c3n2)cc1)C(F)F = < 6.00
O=C(Nc1ccc(Nc2ncc3ccn(S(=O)(=O)c4cccc5cccnc45)c3n2)cc1)C1CC1 = > 7.70

// sample COc1cc(Nc2cc3c(ccn3Cc3cccnc3)cn2)cc(OC)c1OC , its pIC50 was < 6.00

// sample N#Cc1ccccc1Nc1ncc2ccn(S(=O)(=O)c3cccc4cccnc34)c2n1 , its pIC50 was > 7.70

// sample COc1cc(N2CCN(CCO)CC2)ccc1Nc1cc2c(cn1)cnn2S(=O)(=O)c1cccc2cccnc12 , its pIC50 was > 7.70

// sample c1cncc(Cn2ccc3cnc(Nc4ccc5ncsc5c4)cc32)c1 , its pIC50 was < 6.00

// sample CN(c1ncccc1Cn1ncc2cnc(Nc3ccc4[nH]c(=O)[nH]c4c3)cc21)S(C)(=O)=O , its pIC50 was > 7.70
